Where these numbers come from: the supplement of paper PMC9233669

system: biotinyl-Phe-oxazolone; test: self-aminoacylation, catalytic enhancement (BFO) (fold over background); higher = more active; k-Seq, kA / k0A0; sequences stand for … in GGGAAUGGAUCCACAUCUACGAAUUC…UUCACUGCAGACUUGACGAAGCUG
This sample holds only a part of the variants without activity.
I would appreciate it if you labelled entries True when self-aminoacylation is 20 or higher, otherwise False.

[
  {
    "Seq Text": "CUACACUUCAAGCACUCGGUC [Fam1B.1 aminoacylation ribozyme variant]",
    "Group": "False"
  },
  {
    "Seq Text": "AUUCACCUCGGUCAUCGGGUA [Fam2.2 aminoacylation ribozyme variant]",
    "Group": "False"
  },
  {
    "Seq Text": "AGUACCCUGGUCAUCCAGUGA [Fam2.1 aminoacylation ribozyme variant]",
    "Group": "True"
  },
  {
    "Seq Text": "AUUACCCUCGUCAUCGGGUGA [Fam2.1 aminoacylation ribozyme variant]",
    "Group": "True"
  },
  {
    "Seq Text": "AUUCAUCUAGGUCAACGGGUG [Fam2.2 aminoacylation ribozyme variant]",
    "Group": "True"
  },
  {
    "Seq Text": "AAUACCAUGGUCAUCGAGUGA [Fam2.1 aminoacylation ribozyme variant]",
    "Group": "False"
  },
  {
    "Seq Text": "AUUCACUUAGGUUAUCGGGUG [Fam2.2 aminoacylation ribozyme variant]",
    "Group": "False"
  },
  {
    "Seq Text": "AAGUUUGAUGAUAGUCGCAAG [Fam3.1 aminoacylation ribozyme variant]",
    "Group": "False"
  },
  {
    "Seq Text": "AUUCACCUAUGUCGUCGGGUG [Fam2.2 aminoacylation ribozyme variant]",
    "Group": "False"
  }
]

====

system: biotinyl-Trp-oxazolone; assay: self-aminoacylation, catalytic enhancement (BWO) (fold over background); higher = more active; k-Seq, kA / k0A0; sequences stand for … in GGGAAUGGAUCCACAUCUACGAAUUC…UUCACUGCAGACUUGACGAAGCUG
This sample holds only a part of the variants without activity.
Assay Metric: self-aminoacylation

[
  {
    "Seq Text": "AUCCACCUAGGUCAUCGGGAG [Fam2.2 aminoacylation ribozyme variant]",
    "Experimental Result": 2.19
  },
  {
    "Seq Text": "AUUACCCUCGUCAUCGAGUGG [Fam2.1 aminoacylation ribozyme variant]",
    "Experimental Result": 0.389
  },
  {
    "Seq Text": "AUUACCCUGCUAAUCGAGUGA [Fam2.1 aminoacylation ribozyme variant]",
    "Experimental Result": 3.01
  },
  {
    "Seq Text": "UUACACUUCAAGCAAUCGGUC [Fam1B.1 aminoacylation ribozyme variant]",
    "Experimental Result": 15.7
  },
  {
    "Seq Text": "CCACUCUUCAAGCCAUCGGUC [Fam1B.1 aminoacylation ribozyme variant]",
    "Experimental Result": 0.953
  },
  {
    "Seq Text": "CUACUUUAACCAAUCGGUCUG [Fam1A.1 aminoacylation ribozyme variant]",
    "Experimental Result": 0.949
  },
  {
    "Seq Text": "AUUACCCUGGUCAACAAGUGA [Fam2.1 aminoacylation ribozyme variant]",
    "Experimental Result": 8.34
  },
  {
    "Seq Text": "AUUACCCUGGUCAUCCCGUGA [Fam2.1 aminoacylation ribozyme variant]",
    "Experimental Result": 9.33
  },
  {
    "Seq Text": "AUUCACCGAGGUCAUCGGAUG [Fam2.2 aminoacylation ribozyme variant]",
    "Experimental Result": 1.42
  },
  {
    "Seq Text": "AUUACGCUGGCCAUCGAGUGA [Fam2.1 aminoacylation ribozyme variant]",
    "Experimental Result": 8.46
  },
  {
    "Seq Text": "CCAUACUUCCAGCAAUCGGUC [Fam1B.1 aminoacylation ribozyme variant]",
    "Experimental Result": 0.815
  },
  {
    "Seq Text": "UUUGCCCUGGUCAUCGAGUGA [Fam2.1 aminoacylation ribozyme variant]",
    "Experimental Result": 46.1
  },
  {
    "Seq Text": "AAGUUUGCUAAUAGUCGCGAC [Fam3.1 aminoacylation ribozyme variant]",
    "Experimental Result": 1.19
  },
  {
    "Seq Text": "AUUCCCCUGGACAUCGAGUGA [Fam2.1 aminoacylation ribozyme variant]",
    "Experimental Result": 7.13
  },
  {
    "Seq Text": "CUACUUCAAACAAUCGGUUUA [Fam1A.1 aminoacylation ribozyme variant]",
    "Experimental Result": 2.11
  },
  {
    "Seq Text": "UCACACUUCAAACAAUCGGUC [Fam1B.1 aminoacylation ribozyme variant]",
    "Experimental Result": 42.8
  },
  {
    "Seq Text": "AUUAGCCUGGUCAUCGAGUGA [Fam2.1 aminoacylation ribozyme variant]",
    "Experimental Result": 9.2
  },
  {
    "Seq Text": "AAUUUUGCUAAUAGUCUCAAG [Fam3.1 aminoacylation ribozyme variant]",
    "Experimental Result": 1.23
  }
]
